Here, each record is paired with measured Relative EC50 data.
Molecular target: T1, recombinant human C5a (human, UniProt P01031 678-751)
T1 construct: Bought rhC5a (Hycult HC2101 for the ELISA, Sigma C5788 for the CD11b assay); also called rhC5a; hC5a
T1 sequence: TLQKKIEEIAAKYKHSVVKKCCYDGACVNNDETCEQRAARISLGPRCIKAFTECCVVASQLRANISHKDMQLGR
Assay: ELISA on C5a (ABZENA), 0-100 ng/mL antibody
Measured property: Relative EC50

binder="VH5Vk1 (IFX-2 clone) (antibody, IgG4, V domains shown, Humanized IgG4 (S241P) / kappa; also called VH5/Vκ1; not shown: human kappa light chain constant domain) VH: QVQLVQSGAEVKKPGASVKVSCKASGYSFTTFWMDWVRQAPGQGLEWMGRIDPSDSESRLDQKFKDRVTMTVDKSTSTVYMELSSLRSEDTAVYYCARGNDGYYGFAYWGQGTLVTVSS VL: DIVLTQSPASLAASVGDRVTITCKASQSVDYDGDSYMKWYQQKPGKAPKLLIYAASNLQSGIPSRFSGSGSGTDFTLTISSLQEEDFATYYCQQSNEDPYTFGQGTKLEIK" result="1.28 relative to IFX-1 (VH0Vk0)"
binder="VH4Vk1 (IFX-2 clone) (antibody, IgG4, V domains shown, Humanized IgG4 (S241P) / kappa; also called VH4/Vκ1; not shown: human kappa light chain constant domain) VH: QVQLVQSGAEVKKPGASVKVSCKASGYSFTTFWMDWVRQAPGQGLEWIGRIDPSDSESRLDQRFKDRVTMTVDKSTSTVYMELSSLRSEDTAVYYCARGNDGYYGFAYWGQGTLVTVSS VL: DIVLTQSPASLAASVGDRVTITCKASQSVDYDGDSYMKWYQQKPGKAPKLLIYAASNLQSGIPSRFSGSGSGTDFTLTISSLQEEDFATYYCQQSNEDPYTFGQGTKLEIK" result="1 relative to IFX-1 (VH0Vk0)"
binder="VH2Vk4 (IFX-2 clone) (antibody, IgG4, V domains shown, Humanized IgG4 (S241P) / kappa; also called VH2/Vκ4; not shown: human kappa light chain constant domain) VH: QVQLVQSGAEVKKPGASVKISCKASGYSFTTFWMDWVKQAPGQGLEWIGRIDPSDSESRLDQRFKDRATLTVDKSTSTVYMELSSLRSEDTAVYYCARGNDGYYGFAYWGQGTLVTVSS VL: DIQMTQSPSSLSASVGDRVTITCKASQSVDYDGDSYMKWYQQKPGKAPKLLIYAASNLQSGVPSRFSGSGSGTDFTLTISSLQPEDFATYYCQQSNEDPYTFGQGTKLEIK" result="0.99 relative to IFX-1 (VH0Vk0)"
binder="VH3Vk4 (IFX-2 clone) (antibody, IgG4, V domains shown, Humanized IgG4 (S241P) / kappa; also called VH3/Vκ4; not shown: human kappa light chain constant domain) VH: QVQLVQSGAEVKKPGASVKVSCKASGYSFTTFWMDWVRQAPGQGLEWIGRIDPSDSESRLDQRFKDRATLTVDKSTSTVYMELSSLRSEDTAVYYCARGNDGYYGFAYWGQGTLVTVSS VL: DIQMTQSPSSLSASVGDRVTITCKASQSVDYDGDSYMKWYQQKPGKAPKLLIYAASNLQSGVPSRFSGSGSGTDFTLTISSLQPEDFATYYCQQSNEDPYTFGQGTKLEIK" result="0.86 relative to IFX-1 (VH0Vk0)"
binder="VH4Vk4 (IFX-2 clone) (antibody, IgG4, V domains shown, Humanized IgG4 (S241P) / kappa; also called VH4/Vκ4; not shown: human kappa light chain constant domain) VH: QVQLVQSGAEVKKPGASVKVSCKASGYSFTTFWMDWVRQAPGQGLEWIGRIDPSDSESRLDQRFKDRVTMTVDKSTSTVYMELSSLRSEDTAVYYCARGNDGYYGFAYWGQGTLVTVSS VL: DIQMTQSPSSLSASVGDRVTITCKASQSVDYDGDSYMKWYQQKPGKAPKLLIYAASNLQSGVPSRFSGSGSGTDFTLTISSLQPEDFATYYCQQSNEDPYTFGQGTKLEIK" result="1.03 relative to IFX-1 (VH0Vk0)"
binder="VH5Vk4 (IFX-2 clone) (antibody, IgG4, V domains shown, Humanized IgG4 (S241P) / kappa; also called VH5/Vκ4; not shown: human kappa light chain constant domain) VH: QVQLVQSGAEVKKPGASVKVSCKASGYSFTTFWMDWVRQAPGQGLEWMGRIDPSDSESRLDQKFKDRVTMTVDKSTSTVYMELSSLRSEDTAVYYCARGNDGYYGFAYWGQGTLVTVSS VL: DIQMTQSPSSLSASVGDRVTITCKASQSVDYDGDSYMKWYQQKPGKAPKLLIYAASNLQSGVPSRFSGSGSGTDFTLTISSLQPEDFATYYCQQSNEDPYTFGQGTKLEIK" result="1.53 relative to IFX-1 (VH0Vk0)"
